value kind: melting point

Worked cases, melting point given:
• COC(=O)c1nc(-c2ccc(C(F)(F)F)c(F)c2F)nc(N)c1OC = 140 to 141 °C
• COC(=O)c1nc(-c2ccc(I)cc2F)nc(N)c1OC = 159 to 162 °C
• Nc1cc(-c2c(F)cc(I)c(F)c2F)nc(C(=O)O)c1Cl = 170.1 to 172.6 °C

Query string: Please look at this molecule and report its melting point: `C=Cc1c(N)nc(-c2ccc(C#N)cc2F)nc1C(=O)O`
Result string: 164 to 168 °C

Query string: Please look at this molecule and report its melting point: `C#Cc1ccc(-c2nc(C(=O)OC)c(Cl)c(N)c2Cl)cc1`
Result string: 164.2 to 166.8 °C

Query string: Please look at this molecule and report its melting point: `COC(=O)c1nc(-c2cc(F)c(I)cc2F)c(F)c(N)c1Cl`
Result string: 142 to 144 °C

Query string: Please look at this molecule and report its melting point: `COC(=O)c1nc(-c2cc(F)c(I)cc2F)c(Br)c(N)c1Cl`
Result string: 145 to 147 °C

Query string: Please look at this molecule and report its melting point: `COC(=O)c1nc(-c2ccc(I)cc2)c(Cl)c(N)c1Cl`
Result string: 187.2 to 189.9 °C

Query string: Please look at this molecule and report its melting point: `COC(=O)c1nc(-c2ccc(OC(F)F)c(F)c2)c(F)c(N)c1Cl`
Result string: 112 to 114 °C

Query string: Please look at this molecule and report its melting point: `COC(=O)c1nc(-c2ccc(C#N)cc2)c(Cl)c(N)c1Cl`
Result string: 133.4 to 134.8 °C

Query string: Please look at this molecule and report its melting point: `COC(=O)c1nc(-c2ccc(Cl)c(F)c2)c(F)c(N)c1Cl`
Result string: 111 to 114 °C

Query string: Please look at this molecule and report its melting point: `C#Cc1ccc(-c2nc(N)c(OC)c(C(=O)O)n2)c(F)c1`
Result string: 155 to 165 °C (dec.)

Query string: Please look at this molecule and report its melting point: `COC(=O)c1nc(-c2ccc(I)c(F)c2)cc(N)c1Cl`
Result string: 141 to 143 °C

Query string: Please look at this molecule and report its melting point: `COC(=O)c1nc(-c2ccc(C(F)(F)F)c(F)c2F)c(F)c(N)c1Cl`
Result string: 131 to 132 °C

Query string: Please look at this molecule and report its melting point: `C#Cc1ccc(-c2nc(C(=O)O)c(Cl)c(N)c2Cl)cc1`
Result string: 160.9 to 162.6 °C

Query string: Please look at this molecule and report its melting point: `COc1c(N)nc(-c2ccc(Br)cc2F)nc1C(=O)O`
Result string: 133 to 135 °C

Query string: Please look at this molecule and report its melting point: `C#Cc1ccc(-c2nc(C(=O)O)c(Cl)c(N)c2F)cc1`
Result string: 142 to 147 °C (dec.)

Query string: Please look at this molecule and report its melting point: `COC(=O)c1nc(-c2ccc(OC(F)F)cc2)cc(N)c1Cl`
Result string: 166.4 to 169 °C

Query string: Please look at this molecule and report its melting point: `COC(=O)c1nc(-c2ccc(C#N)cc2)c(C)c(N)c1Cl`
Result string: 145 to 148 °C

Query string: Please look at this molecule and report its melting point: `Nc1cc(-c2ccc(C(F)(F)F)c(F)c2F)nc(C(=O)O)c1Cl`
Result string: 161 °C

Query string: Please look at this molecule and report its melting point: `C=Cc1c(C(=O)OC)nc(-c2ccc(Br)cc2)c(F)c1N`
Result string: 93 to 94 °C

Query string: Please look at this molecule and report its melting point: `COC(=O)c1nc(-c2cc(F)c(C(F)(F)F)cc2F)nc(N)c1OC`
Result string: 96 to 98 °C

----------
Tested on: HORSS: barley, including spring and winter (Hordeum vulgare)
method: Post-emergent Test III, herbicidal activity in wheat and barley
Type: in vivo
cond: probit analysis, dose for growth reduction of 20 percent, 21 days after application; crop
Documented GR20 HORSS across a set of molecules
Your answer is read as g ai/ha, so omit the unit and give the number.

Worked cases, GR20 HORSS given:
* Nc1c(F)c(-c2ccc(Br)cc2)nc(C(=O)O)c1Cl | 1
* COC(=O)c1nc(-c2ccc(OC(F)F)cc2)c(F)c(N)c1Cl | 33
* COC(=O)c1nc(-c2ccc(I)cc2)c(F)c(N)c1Cl | 1
* N#Cc1ccc(-c2nc(C(=O)O)c(Cl)c(N)c2F)cc1 | 18
* Nc1c(F)c(-c2ccc(Cl)c(F)c2)nc(C(=O)O)c1Cl | 7

Below: the item to evaluate.
Query string: Please look at this molecule and report its GR20 HORSS: `Nc1cc(-c2ccc(Br)c(F)c2F)nc(C(=O)O)c1Cl`
Result string: 1

----------
method: Post-emergent Test III, herbicidal activity in wheat and barley
Format: in vivo, Lolium multiflorum, Lolium rigidum
cond: Lolium multiflorum, post-emergence, 504 h; 70 g ai/ha; read-out: Visual Growth Reduction (%) 21 Days After Application LOLSS
value kind: pest or weed control at 70 g/ha

Worked cases, pest or weed control at 70 g/ha given:
* COC(=O)c1nc(-c2ccc(F)cc2)c(F)c(N)c1Cl [Compound 204] | 0 to 29%
* Nc1c(F)c(-c2ccc(OC(F)F)cc2)nc(C(=O)O)c1Cl [Compound 143] | 30 to 44%
* COC(=O)c1nc(-c2ccc(OC(F)F)cc2)c(F)c(N)c1Cl [Compound 85] | 0 to 29%

Query string: Please look at this compound and report its pest or weed control at 70 g/ha: COC(=O)c1nc(-c2ccc(C#N)cc2)c(F)c(N)c1Cl [Compound 142]
Result string: 0 to 29%

Query string: Please look at this compound and report its pest or weed control at 70 g/ha: COC(=O)c1nc(-c2ccc(Br)cc2)c(F)c(N)c1Cl [Compound 138]
Result string: 75 to 84%

Query string: Please look at this compound and report its pest or weed control at 70 g/ha: Nc1c(F)c(-c2ccc(C(F)(F)F)c(F)c2F)nc(C(=O)O)c1Cl [Compound 167]
Result string: 0 to 29%

----------
System: LAMSS
method: Post-emergent Test III, herbicidal activity in wheat and barley
Type: in vivo
cond: probit analysis, dose for growth reduction of 80 percent, 21 days after application
value kind: GR80 LAMSS (g ai/ha)
Your answer is read as g ai/ha, so omit the unit and give the number.

Worked cases, GR80 LAMSS given:
* Nc1c(F)c(-c2ccc(OC(F)F)cc2)nc(C(=O)O)c1Cl [Compound 143] | 1
* COC(=O)c1nc(-c2ccc(F)cc2)c(F)c(N)c1Cl [Compound 204] | 8
* Nc1c(F)c(-c2ccc(Br)c(F)c2F)nc(C(=O)O)c1Cl [Compound 147] | 8

Query string: Please look at this compound and report its GR80 LAMSS: C=Cc1c(C(=O)O)nc(-c2ccc(Cl)c(F)c2)c(F)c1N [Compound 214]
Result string: 33

Query string: Please look at this compound and report its GR80 LAMSS: N#Cc1ccc(-c2nc(C(=O)O)c(Cl)c(N)c2F)cc1 [Compound 39]
Result string: 1

Query string: Please look at this compound and report its GR80 LAMSS: COC(=O)c1nc(-c2ccc(F)c(F)c2F)c(F)c(N)c1Cl [Compound 186]
Result string: 25

----------
Test system: SETVI: green foxtail (Setaria viridis)
method: Post-emergent Test III, herbicidal activity in wheat and barley
Format: in vivo
cond: Table 9; dose for 50 percent growth reduction, probit analysis; 21 d
value kind: GR50 SETVI (g ai/ha)
Your answer is read as g ai/ha, so omit the unit and give the number.

Worked cases, GR50 SETVI given:
- COC(=O)c1nc(-c2ccc(I)cc2)c(Cl)c(N)c1Cl: 72
- Cc1c(-c2ccc(C(F)(F)F)c(F)c2)nc(C(=O)O)c(Cl)c1N: 53
- COC(=O)c1nc(-c2ccc(Br)cc2F)nc(N)c1OC: 79

Query string: Please look at this molecule and report its GR50 SETVI: `Nc1c(Cl)c(C(=O)O)nc(-c2ccc(I)cc2)c1Cl`
Result string: 54

Query string: Please look at this molecule and report its GR50 SETVI: `Nc1c(F)c(-c2cc(F)c(Br)cc2F)nc(C(=O)O)c1Cl`
Result string: 1

Query string: Please look at this molecule and report its GR50 SETVI: `COc1c(N)nc(-c2ccc(C(F)(F)F)c(F)c2F)nc1C(=O)O`
Result string: 42

Query string: Please look at this molecule and report its GR50 SETVI: `COC(=O)c1nc(-c2cc(F)c(Br)cc2F)c(F)c(N)c1Cl`
Result string: 24

Query string: Please look at this molecule and report its GR50 SETVI: `Nc1cc(-c2ccc(Br)cc2)nc(C(=O)O)c1Cl`
Result string: 28
